biological target: STAT6 (Homo sapiens, UniProt P42226); construct: stably transfected HaCaT keratinocyte cell line, which expresses NanoLuc luciferase reporter gene under the transcriptional control of the STAT6 responsive promoter; endogenous in cells; host or cells: HaCaT keratinocyte reporter cell line (stably transfected with a NanoLuc reporter); test: STAT6 Reporter Luciferase Assay (IL-13 stimulated HaCaT keratinocyte NanoLuc reporter cells); type: cell-based; settings: IL-13 stimulated HaCaT STAT6 NanoLuc reporter cells; read-out: Reporter EC50
Sequence (P42226 whole entry): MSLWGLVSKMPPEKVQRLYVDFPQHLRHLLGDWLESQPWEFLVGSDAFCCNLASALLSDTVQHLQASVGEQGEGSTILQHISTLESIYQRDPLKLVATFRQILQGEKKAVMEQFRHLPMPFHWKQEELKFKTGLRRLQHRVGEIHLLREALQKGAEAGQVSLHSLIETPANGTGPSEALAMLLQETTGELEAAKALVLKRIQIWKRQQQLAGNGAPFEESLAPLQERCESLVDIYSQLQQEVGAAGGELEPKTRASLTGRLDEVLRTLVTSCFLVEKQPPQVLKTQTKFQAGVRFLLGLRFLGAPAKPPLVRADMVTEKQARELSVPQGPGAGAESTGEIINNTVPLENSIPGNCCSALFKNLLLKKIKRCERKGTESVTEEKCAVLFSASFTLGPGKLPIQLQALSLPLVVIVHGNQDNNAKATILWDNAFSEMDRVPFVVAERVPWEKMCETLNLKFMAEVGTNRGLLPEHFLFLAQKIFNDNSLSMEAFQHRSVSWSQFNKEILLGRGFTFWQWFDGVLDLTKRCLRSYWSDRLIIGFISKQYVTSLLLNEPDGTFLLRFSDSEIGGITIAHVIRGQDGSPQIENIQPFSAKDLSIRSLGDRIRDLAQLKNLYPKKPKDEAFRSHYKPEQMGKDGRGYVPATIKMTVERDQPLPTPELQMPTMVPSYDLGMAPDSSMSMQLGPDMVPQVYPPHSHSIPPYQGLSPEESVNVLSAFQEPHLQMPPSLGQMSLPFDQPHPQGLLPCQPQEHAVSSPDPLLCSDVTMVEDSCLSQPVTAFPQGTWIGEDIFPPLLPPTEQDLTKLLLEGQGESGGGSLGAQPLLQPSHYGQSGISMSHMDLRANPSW
In this section, each of the compounds is paired with its reported EC50.
Hi! Could you send only the number? It should be in nM, unit omitted.

Answered examples (3):
compound=CC(C)n1nc(C(=O)NCc2ccc(NC(=O)N(C)C)cc2)c2c1[C@@H](C)CN(c1ccc(C(=O)NCc3ccc(NC(=O)N(C)C)cc3)cn1)C2 numericreadout=7
compound="CC(C)C1CN(c2ccc(C(=O)N(C)C)cn2)Cc2c(C(=O)NCc3ccc(NC(=O)N(C)C)cc3)nn(C)c21 (single isomer, unassigned) [Example 272]" numericreadout=4
compound=Cc1nc2c(n1C)CCN(C(=O)c1ccc(N3CCc4c(c(C(=O)NCc5ccc(NC(=O)N(C)C)cc5)nn4C(C)C)C3)nc1)C2 numericreadout=24

Ask: # lookup: EC50 of CC(C)n1nc(C(=O)NCc2ccc(C(N)=O)cc2)c2c1[C@@H](C)CN(c1ccc(C(=O)N(C)C)cn1)C2
Reply: 3

Ask: Find the recorded EC50 belonging to CC(C)n1nc(C(=O)NCc2ccc(NC(=O)N3CC[C@](C)(N)C3)cc2)c2c1[C@@H](C)CN(c1ccc(C(=O)N(C)C)cc1)C2 and report it.
Reply: 3
